assay: drug combination growth inhibition, ovarian cancer – cell-based, oncology-focused library, rucaparib conditional, profiling panel (AID 1508598); conditions: patient-derived ovarian cancer cells, CellTiter-Glo viability, 144 h; at 1.25 µM; OCI-C5x cells; with rucaparib 10 µM; 100% = cells with rucaparib alone
Calls of active or inactive are those of the source.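 The calls were made as follows: active = normalized viability below 100% at a tested concentration; inactive = the rest.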
Outcomes: active, inactive

1. COc1c(C)cnc(Cn2cnc3c(Cl)nc(N)nc32)c1C = active
2. Fc1cc(-c2cccc3ncc(-c4cnn(C5CCNCC5)c4)nc23)cc(F)c1CN1CCOCC1 = inactive
3. Cc1cccc(-c2nn3c(c2-c2ccnc4ccc(C(N)=O)cc24)CCC3)n1 = inactive
4. CC(C)(C)c1cnc(CSc2cnc(NC(=O)C3CCNCC3)s2)o1 = active
5. CC1(C)CNc2cc(NC(=O)c3cccnc3NCc3ccncc3)ccc21 = inactive
6. CCC[C@H](NC(=O)/C(C#N)=C/c1cccc(Br)n1)c1ccccc1 = inactive
7. Cn1c(=O)c(F)c(Nc2ccc(I)cc2F)c2c(=O)n(C[C@@H](O)CO)cnc21 = active
8. CCn1c(-c2nonc2N)nc2c(C#CC(C)(C)O)ncc(OC[C@H]3CCCNC3)c21 = inactive
9. CCCS(=O)(=O)Nc1ccc(F)c(C(=O)c2c[nH]c3ncc(-c4ccc(Cl)cc4)cc23)c1F = active
